TEST: yeast display, Sf9 membrane polyspecificity reagent, FACS + sequencing; frameworks hold sequencing errors
QUANTITY_NAME: polyreactivity (PSR sort gate)

QVQLVESGGGLVQAGGSLRLSCAASGIIFVENAMGWYRQAPGKERDLVASGDSTYADSVKGRFTIARDNAKNTVYLQMNSLKPEDNAVYYCNTDGYPRLYIYDYWGQGTQVTVSS : low polyreactivity
QVQLVESGGGLVQAGGSLRLSCAASGGTFDVYTMGWYRQAPGKERELVAAIDNGGSTNYADSVKGRFTISRDNAKNTVYLQMNSLKPEDTAVYYCAADEVYLFWGIAEFIYDYWGQGTQVTVSS : low polyreactivity
QVQLVESGGGLVQAGGSLRLSCAASGFTFVSYAMGWYRQATGKERELVAVIDNSDGDTYYADSVKGRFTISRDNAKNTVYLQMNSLKPEDTAVYYCAADAVIEWTDWYSAWWYYYWGQGTQVTVSS : low polyreactivity
QVQLVESGGGLVQAGGSLRLSCAAYGSNFYLYAMGWYRQAPGKERELVAAITRGGTTNYADSVKGRFTISRDNAKNTVYLQMNSLKPEDTAVYYCAKEVTTLLSLYEIVDRDYWGQGTQVTVSS : low polyreactivity
QVQLVESGGGLVQAGGSLRLSCAASGRTFAGNAMGWYRQAPGKERELVAGISSGGSTNNADSVKGRFTSTRDNAKNTVYLQMNSLNPEDTAVYYCAKRYFRKGYPLFQYAYGYWGQGTQVTLSS : high polyreactivity
QVQLVESGGGLVQAGGSLRLSCAASGNIFTKYAMGWYRPAPGKERELVAAITWSGGSTYYADSVKGRFTISRDNAKNTVYLRMNSLKPEDTAVYYCATAHGFRRDKPYDYWGQGTQVTVSS : high polyreactivity

Now consider a different sequence.
q: Give the reported polyreactivity (PSR sort gate) for this sequence. QVQLVESGGGLVQAGGSLRLSCAASGFIFGHNAMGWYRQAPGKQRELVAAITYSGGSTYYADSVKGRFTISRDNAKNTVYLQMNSLKPEDTAVSYSAASNQWSSTYLTYGYYYWGQGTQVTVSS
a: low polyreactivity
